Listed binders paired with reported pKd
- measured on: recombinant human or murine heat shock protein 70 (hsp70) (human or murine), P0DMV8
- Sequence (P0DMV8 whole entry): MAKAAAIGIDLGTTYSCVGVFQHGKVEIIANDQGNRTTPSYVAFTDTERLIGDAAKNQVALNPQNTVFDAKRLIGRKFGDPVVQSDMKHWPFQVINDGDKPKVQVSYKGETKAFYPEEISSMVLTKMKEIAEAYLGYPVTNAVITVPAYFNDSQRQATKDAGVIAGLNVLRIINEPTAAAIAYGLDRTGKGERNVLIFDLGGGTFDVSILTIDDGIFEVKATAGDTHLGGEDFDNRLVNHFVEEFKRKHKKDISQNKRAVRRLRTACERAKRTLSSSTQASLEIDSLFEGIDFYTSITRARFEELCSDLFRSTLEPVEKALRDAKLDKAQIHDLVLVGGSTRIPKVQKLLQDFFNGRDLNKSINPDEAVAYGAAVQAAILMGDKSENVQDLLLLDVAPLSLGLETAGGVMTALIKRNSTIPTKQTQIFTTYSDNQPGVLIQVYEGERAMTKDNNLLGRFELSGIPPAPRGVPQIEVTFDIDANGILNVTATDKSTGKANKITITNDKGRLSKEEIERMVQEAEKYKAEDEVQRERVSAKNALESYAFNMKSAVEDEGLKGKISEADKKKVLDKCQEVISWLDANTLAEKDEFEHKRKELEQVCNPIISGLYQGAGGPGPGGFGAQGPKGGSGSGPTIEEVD
- method summary: binding inhibition assay (Hill plot) against tritiated … on hsp70
Reminder that pKd means the negative base-10 logarithm of the concentration expressed in mol/L.

Example results:
YMLDLQPETTGSGHWDFAWPW (modifications not checked) […gsgHWDFAWPW]: 4.57
SIINFEKLGSGHWDFAWPW (modifications not checked) [SIINFEKLgsgHWDFAWPW]: 4.40
SIINFEKLGSGNLLRLTGW (modifications not checked) [SIINFEKLgsgNLLRLTGW]: 5.92
HWDFAWPWGSGYMDGTMSQV (modifications not checked) [HWDFAWPWgsg…]: 4.54
TLGIVCPIGSGHWDFAWPW (modifications not checked) [TLGIVCPIgsgHWDFAWPW]: 5.04
YMDGTMSQVGSGNLLRLTGW (modifications not checked) […gsgNLLRLTGW]: 5.58

Lab note: next binder to report on.
Exercise: Item under review: IMDQVPFSV (modifications not checked) [… (Gp100 209-217, T210M)] . Reported pKd?
Key: 2.59
